TEST TARGET: human MCH-1R (human, UniProt Q99705 1-353)
Sequence (Q99705 whole entry): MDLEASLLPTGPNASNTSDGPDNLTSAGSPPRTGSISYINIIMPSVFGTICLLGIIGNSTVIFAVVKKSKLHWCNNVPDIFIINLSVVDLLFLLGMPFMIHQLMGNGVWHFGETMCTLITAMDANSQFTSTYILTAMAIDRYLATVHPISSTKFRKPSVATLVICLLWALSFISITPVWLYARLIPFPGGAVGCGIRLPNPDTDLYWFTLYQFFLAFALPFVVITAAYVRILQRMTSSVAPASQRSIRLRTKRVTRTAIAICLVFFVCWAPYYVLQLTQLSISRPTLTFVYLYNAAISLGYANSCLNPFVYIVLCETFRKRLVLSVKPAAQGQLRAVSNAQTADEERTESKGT
ASSAY PROTOCOL: cell-based or functional assay
PARAMETER: Activation %, aequorin bioluminescence (%)
Could you give me the number in %? Just the number is fine.

Input line: For XCMLNRVYAPC (HELM PEPTIDE1{[ac].[dR].C.M.L.N.R.V.Y.A.P.C.[am]}$PEPTIDE1,PEPTIDE1,3:R3-12:R3$$$V2.0; SMILES CSCC[C@@H]1NC(=O)[C@@H](NC(=O)[C@@H](CCCNC(=N)N)NC(C)=O)CSSC[C@@H](C(N)=O)NC(=O)[C@@H]2CCCN2C(=O)[C@H](C)NC(=O)[C@H](Cc2ccc(O)cc2)NC(=O)[C@H](C(C)C)NC(=O)[C@H](CCCNC(=N)N)NC(=O)[C@H](CC(N)=O)NC(=O)[C@H](CC(C)C)NC1=O) [SEQ. ID. NO. 33 (D-Arg^6, Asn^10, Ala^14 analog of Ac-hMCH(6-16)-NH2)] , write its Activation %, aequorin bioluminescence.
Output line: 109
